# assayedSystem: Helios (Homo sapiens, UniProt Q96SW2+Q9UKS7)
# Construct: endogenous in cells; host or cells: Jurkat cells
# Sequence (Q9UKS7 whole entry): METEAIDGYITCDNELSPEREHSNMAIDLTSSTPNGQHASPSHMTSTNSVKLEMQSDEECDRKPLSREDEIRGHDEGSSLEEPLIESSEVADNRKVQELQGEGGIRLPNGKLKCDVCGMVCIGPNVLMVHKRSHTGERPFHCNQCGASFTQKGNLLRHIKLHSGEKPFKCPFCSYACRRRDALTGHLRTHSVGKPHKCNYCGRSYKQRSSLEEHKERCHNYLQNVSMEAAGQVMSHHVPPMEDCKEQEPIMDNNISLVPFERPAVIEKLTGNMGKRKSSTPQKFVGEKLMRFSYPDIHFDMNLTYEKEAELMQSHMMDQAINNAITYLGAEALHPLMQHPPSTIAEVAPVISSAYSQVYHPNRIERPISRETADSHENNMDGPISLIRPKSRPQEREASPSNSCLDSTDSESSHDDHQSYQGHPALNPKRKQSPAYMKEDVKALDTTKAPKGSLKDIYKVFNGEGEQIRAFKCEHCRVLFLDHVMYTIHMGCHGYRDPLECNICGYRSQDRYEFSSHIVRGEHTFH
# Sequence (Q96SW2 whole entry): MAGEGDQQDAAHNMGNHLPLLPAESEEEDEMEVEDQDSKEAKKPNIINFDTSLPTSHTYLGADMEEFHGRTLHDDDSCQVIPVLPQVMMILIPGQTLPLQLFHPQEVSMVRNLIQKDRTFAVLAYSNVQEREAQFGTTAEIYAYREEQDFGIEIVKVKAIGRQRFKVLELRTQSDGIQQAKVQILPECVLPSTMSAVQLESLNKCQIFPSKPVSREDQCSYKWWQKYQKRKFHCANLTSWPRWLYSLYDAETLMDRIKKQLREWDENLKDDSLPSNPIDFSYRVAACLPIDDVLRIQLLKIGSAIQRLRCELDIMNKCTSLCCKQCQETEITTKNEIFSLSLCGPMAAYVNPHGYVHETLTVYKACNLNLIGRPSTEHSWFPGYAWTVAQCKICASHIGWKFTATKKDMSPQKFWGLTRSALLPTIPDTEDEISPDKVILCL
# Sequence (Q16531 whole entry partner): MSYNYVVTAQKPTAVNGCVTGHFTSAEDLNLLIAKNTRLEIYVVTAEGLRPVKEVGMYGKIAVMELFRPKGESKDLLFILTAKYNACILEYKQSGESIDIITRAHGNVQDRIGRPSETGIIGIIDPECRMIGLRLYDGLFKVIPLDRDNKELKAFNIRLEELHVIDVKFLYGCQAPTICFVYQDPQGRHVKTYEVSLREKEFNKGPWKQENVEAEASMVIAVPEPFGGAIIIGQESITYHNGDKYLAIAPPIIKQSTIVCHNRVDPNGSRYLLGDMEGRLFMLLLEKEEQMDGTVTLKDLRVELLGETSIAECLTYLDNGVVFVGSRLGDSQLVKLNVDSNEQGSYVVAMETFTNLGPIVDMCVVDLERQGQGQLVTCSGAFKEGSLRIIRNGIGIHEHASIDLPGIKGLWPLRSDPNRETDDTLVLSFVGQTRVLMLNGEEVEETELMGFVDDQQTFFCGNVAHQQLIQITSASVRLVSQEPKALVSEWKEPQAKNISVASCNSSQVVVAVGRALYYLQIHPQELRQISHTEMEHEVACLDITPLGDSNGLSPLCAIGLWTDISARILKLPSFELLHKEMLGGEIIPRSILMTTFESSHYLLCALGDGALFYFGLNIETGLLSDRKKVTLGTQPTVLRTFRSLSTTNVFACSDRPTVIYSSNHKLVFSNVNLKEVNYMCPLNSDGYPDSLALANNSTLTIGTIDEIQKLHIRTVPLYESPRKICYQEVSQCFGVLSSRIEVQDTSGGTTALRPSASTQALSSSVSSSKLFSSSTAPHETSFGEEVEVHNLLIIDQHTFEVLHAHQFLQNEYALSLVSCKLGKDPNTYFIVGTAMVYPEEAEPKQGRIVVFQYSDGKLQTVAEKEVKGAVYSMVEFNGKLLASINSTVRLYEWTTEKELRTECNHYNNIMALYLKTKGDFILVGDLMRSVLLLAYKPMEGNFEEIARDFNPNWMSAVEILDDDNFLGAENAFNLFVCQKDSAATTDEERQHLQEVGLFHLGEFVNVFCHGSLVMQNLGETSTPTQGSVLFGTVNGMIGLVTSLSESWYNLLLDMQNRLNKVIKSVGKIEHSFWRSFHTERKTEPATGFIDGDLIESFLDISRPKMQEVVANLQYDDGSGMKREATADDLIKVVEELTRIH
# assayDetails: Helios Cellular Degradation Assay (Helios, Jurkat)
# Format: cell-based
# measurementParameters: Jurkat cells, 72 h incubation, flow cytometry with Helios-PE antibody; read-out: Helios Jurkat IC50
measurementLabel: DC50 (µM)
Give bare numbers, in µM.

[[record]]
molecule = "CNc1nc(-c2ccc3c(c2)[C@H](C)N(C2CCC(=O)NC2=O)C3=O)cc(C)c1C#N (single isomer, unassigned)"
assayedsystem = "Helios (Homo sapiens, UniProt Q96SW2+Q9UKS7)"
value = 1

[[record]]
molecule = "Cc1cc(N)nc(-c2ccc3c(c2F)[C@@H](C)N(C2CCC(=O)NC2=O)C3=O)c1 (stereo partly drawn)"
assayedsystem = "Helios (Homo sapiens, UniProt Q96SW2+Q9UKS7)"
value = 0.16


Recorded DC50 of Cc1cc(-c2ccc3c(c2F)CN(C2CCC(=O)NC2=O)C3=O)nc(N)c1F (stereo not drawn) , please.
0.0035

---

Kindly supply the reported DC50 values for the records listed here.
# assayedSystem: Helios (Homo sapiens, UniProt Q96SW2+Q9UKS7)
# Construct: endogenous in cells; host or cells: Jurkat cells
# assayDetails: Helios Cellular Degradation Assay (Helios, Jurkat)
# Type: cell-based
# measurementParameters: Jurkat cells, 72 h incubation, flow cytometry with Helios-PE antibody; read-out: Helios Jurkat IC50
One number for each entry, in µM.

Here's what some known entries look like.
[[record]]
compound = "CNc1nc(-c2ccc3c(c2)[C@@H](C)N(C2CCC(=O)NC2=O)C3=O)cc(C)c1C#N (single isomer, unassigned)"
value = 0.057

[[record]]
compound = "Cc1cc(-c2ccc3c(c2F)CN(C2CCC(=O)NC2=O)C3=O)nc(N)c1C (stereo not drawn)"
value = 0.001

[[record]]
compound = "Cc1cc(-c2ccc3c(c2F)CN(C2CCC(=O)NC2=O)C3=O)nc(N)c1C#N (stereo not drawn)"
value = 0.003

[[record]]
compound = "C[C@@H]1c2c(ccc(-c3cc(C(F)(F)F)cc(N)n3)c2F)C(=O)N1C1CCC(=O)NC1=O (stereo partly drawn)"
value = 1.3

[[record]]
compound = "CNc1nc(-c2ccc3c(c2)[C@@H](C)N(C2CCC(=O)NC2=O)C3=O)cc(C)c1C (single isomer, unassigned)"
value = 2.8


For the 7 compounds below, give their DC50 values.
1. Cc1cc(-c2ccc3c(c2)C(C)N(C2CCC(=O)NC2=O)C3=O)nc(N)c1F (single isomer, unassigned) [Example 21]
2. Cc1cc(-c2ccc3c(c2F)[C@@H](C)N(C2CCC(=O)NC2=O)C3=O)nc(N)c1F (stereo partly drawn)
3. Cc1cc(-c2ccc3c(c2)C(C)N(C2CCC(=O)NC2=O)C3=O)nc(N)c1F (single isomer, unassigned) [Example 22]
4. Cc1cc(-c2ccc3c(c2F)[C@@H](C)N(C2CCC(=O)NC2=O)C3=O)nc(N)c1C#N (stereo partly drawn)
5. CNc1nc(-c2ccc3c(c2)[C@H](C)N(C2CCC(=O)NC2=O)C3=O)cc(C)c1C (stereo partly drawn)
6. Cc1cc(-c2ccc3c(c2)[C@@H](C)N(C2CCC(=O)NC2=O)C3=O)nc(N)c1C (single isomer, unassigned)
7. Cc1cc(-c2ccc3c(c2)[C@@H](C)N(C2CCC(=O)NC2=O)C3=O)nc(N)c1C#N (single isomer, unassigned)

0.0058
0.024
0.2
0.035
0.033
0.003
0.006
